- Tested on: Lung (A549) cancer cell line
- method.summary: SRB assay for anticancer activity, A549
- Assay type: cell-based, human
- particulars: Homo sapiens, 48 h, read-out: % Inhibition at 10 μM Solution in Cancer Cell Line
If the reported inhibition at 10 µM equals or exceeds 30%, assign 1. If not, assign 0.

The examples below pair each entry with its known result.
{"compound": "CCOC(=O)C1(C(=O)OCC)Cc2cc(C)c3c(c2C1)C(=O)N(S(=O)(=O)c1ccc(F)cc1)C3=O", "target.entity": "Lung (A549) cancer cell line", "label": 1}
{"compound": "COc1cccc2c1C(=O)c1c(O)c3c(c(O)c1C2=O)C[C@@](O)(C(=O)CO)C[C@@H]3O[C@H]1C[C@H](N)[C@H](O)[C@H](C)O1 [Doxorubicin, reference compound]", "target.entity": "Lung (A549) cancer cell line", "label": 1}
{"compound": "CCOC(=O)C1(C(=O)OCC)Cc2cc(C)c3c(c2C1)C(=O)NC3=O", "target.entity": "Lung (A549) cancer cell line", "label": 0}
{"compound": "CCOC(=O)C1(C(=O)OCC)Cc2ccc3c(c2C1)C(=O)N(CCO)C3=O", "target.entity": "Lung (A549) cancer cell line", "label": 0}

## Task Check this compound for inhibition at 10 µM at or above 30%: `CCOC(=O)C1(C(=O)OCC)Cc2cc(C)c3c(c2C1)C(=O)N(CCO)C3=O`
## Result 0

## Task Evaluate `CCOC(=O)C1(C(=O)OCC)Cc2ccc3c(c2C1)C(=O)NC3=O` : inhibition at 10 µM at minimum 30%?
## Result 0

----------
- Test system: Head & Neck (FaDu) cancer cell line
- method.summary: SRB assay for anticancer activity, FaDu
- Assay type: cell-based, human
- particulars: Homo sapiens, 48 h, read-out: % Inhibition at 10 μM Solution in Cancer Cell Line
// label = Met if inhibition at 10 µM is not less than 10%, otherwise Not met

For orientation, consider the following solved cases.
{"molecule": "COc1cccc2c1C(=O)c1c(O)c3c(c(O)c1C2=O)C[C@@](O)(C(=O)CO)C[C@@H]3O[C@H]1C[C@H](N)[C@H](O)[C@H](C)O1 [Doxorubicin, reference compound]", "label": "Met"}
{"molecule": "CCOC(=O)C1(C(=O)OCC)Cc2ccc3c(c2C1)C(=O)NC3=O", "label": "Not met"}
{"molecule": "CCOC(=O)C1(C(=O)OCC)Cc2cc(C)c3c(c2C1)C(=O)N(S(=O)(=O)c1ccc(F)cc1)C3=O", "label": "Met"}
{"molecule": "CCOC(=O)C1(C(=O)OCC)Cc2cc(C)c3c(c2C1)C(=O)N(CCO)C3=O", "label": "Met"}
{"molecule": "CCOC(=O)C1(C(=O)OCC)Cc2cc(C)c3c(c2C1)C(=O)NC3=O", "label": "Met"}

# evaluate next
## Task Does `CCOC(=O)C1(C(=O)OCC)Cc2ccc3c(c2C1)C(=O)N(CCO)C3=O` have a reported inhibition at 10 µM of at least 10%?
## Result Not met

----------
- System: Breast (MCF-7) cancer cell line
- method.summary: SRB assay for anticancer activity, MCF-7
- Assay type: cell-based, human
- particulars: Homo sapiens, MCF7, 48 h, read-out: % Inhibition at 10 μM Solution in Cancer Cell Line
- Method: SRB Assay Protocol for Anticancer Activity: […] Addition of SRB and Colorimetric reading: After 48 h incubation, cells attached to substratum of the plate are fixed by adding cold 50% trichloroacetic acid (TCA, 50 μl/well) on top of the medium and incubated at 4° C. for 1 h. […] Absorbance is measured at 510 nm in a microplate spectrophotometer. Percentage of cell growth inhibition in presence of the test sample is calculated as follows: […]
quantity.kind: inhibition at 10 µM
Note: a bare number is incomplete; add the unit.

Past entries and their recorded results:
{"compound": "CCOC(=O)C1(C(=O)OCC)Cc2ccc3c(c2C1)C(=O)NC3=O [Compound 18]", "result": "6.84%"}
{"compound": "CCOC(=O)C1(C(=O)OCC)Cc2cc(C)c3c(c2C1)C(=O)N(CCO)C3=O [Compound 23]", "result": "8.24%"}
{"compound": "CCOC(=O)C1(C(=O)OCC)Cc2cc(C)c3c(c2C1)C(=O)N(S(=O)(=O)c1ccc(F)cc1)C3=O [Compound 24]", "result": "34.9%"}
{"compound": "COc1cccc2c1C(=O)c1c(O)c3c(c(O)c1C2=O)C[C@@](O)(C(=O)CO)C[C@@H]3O[C@H]1C[C@H](N)[C@H](O)[C@H](C)O1 [Doxorubicin, reference compound]", "result": "66.7%"}
{"compound": "CCOC(=O)C1(C(=O)OCC)Cc2cc(C)c3c(c2C1)C(=O)NC3=O [Compound 22]", "result": "10.4%"}

Next item in the queue.
## Task Write down inhibition at 10 µM measured for item CCOC(=O)C1(C(=O)OCC)Cc2ccc3c(c2C1)C(=O)N(CCO)C3=O [Compound 19]
## Result 3.44%
